Origin of the recorded values: ChEMBL document CHEMBL2176954

Let's look at some compounds and their measured pIC50.
Target: Glutamate receptor ionotropic, NMDA 2A (Rattus norvegicus, UniProt P35439+Q00959)
Sequence (Q00959 whole entry, one chain of several): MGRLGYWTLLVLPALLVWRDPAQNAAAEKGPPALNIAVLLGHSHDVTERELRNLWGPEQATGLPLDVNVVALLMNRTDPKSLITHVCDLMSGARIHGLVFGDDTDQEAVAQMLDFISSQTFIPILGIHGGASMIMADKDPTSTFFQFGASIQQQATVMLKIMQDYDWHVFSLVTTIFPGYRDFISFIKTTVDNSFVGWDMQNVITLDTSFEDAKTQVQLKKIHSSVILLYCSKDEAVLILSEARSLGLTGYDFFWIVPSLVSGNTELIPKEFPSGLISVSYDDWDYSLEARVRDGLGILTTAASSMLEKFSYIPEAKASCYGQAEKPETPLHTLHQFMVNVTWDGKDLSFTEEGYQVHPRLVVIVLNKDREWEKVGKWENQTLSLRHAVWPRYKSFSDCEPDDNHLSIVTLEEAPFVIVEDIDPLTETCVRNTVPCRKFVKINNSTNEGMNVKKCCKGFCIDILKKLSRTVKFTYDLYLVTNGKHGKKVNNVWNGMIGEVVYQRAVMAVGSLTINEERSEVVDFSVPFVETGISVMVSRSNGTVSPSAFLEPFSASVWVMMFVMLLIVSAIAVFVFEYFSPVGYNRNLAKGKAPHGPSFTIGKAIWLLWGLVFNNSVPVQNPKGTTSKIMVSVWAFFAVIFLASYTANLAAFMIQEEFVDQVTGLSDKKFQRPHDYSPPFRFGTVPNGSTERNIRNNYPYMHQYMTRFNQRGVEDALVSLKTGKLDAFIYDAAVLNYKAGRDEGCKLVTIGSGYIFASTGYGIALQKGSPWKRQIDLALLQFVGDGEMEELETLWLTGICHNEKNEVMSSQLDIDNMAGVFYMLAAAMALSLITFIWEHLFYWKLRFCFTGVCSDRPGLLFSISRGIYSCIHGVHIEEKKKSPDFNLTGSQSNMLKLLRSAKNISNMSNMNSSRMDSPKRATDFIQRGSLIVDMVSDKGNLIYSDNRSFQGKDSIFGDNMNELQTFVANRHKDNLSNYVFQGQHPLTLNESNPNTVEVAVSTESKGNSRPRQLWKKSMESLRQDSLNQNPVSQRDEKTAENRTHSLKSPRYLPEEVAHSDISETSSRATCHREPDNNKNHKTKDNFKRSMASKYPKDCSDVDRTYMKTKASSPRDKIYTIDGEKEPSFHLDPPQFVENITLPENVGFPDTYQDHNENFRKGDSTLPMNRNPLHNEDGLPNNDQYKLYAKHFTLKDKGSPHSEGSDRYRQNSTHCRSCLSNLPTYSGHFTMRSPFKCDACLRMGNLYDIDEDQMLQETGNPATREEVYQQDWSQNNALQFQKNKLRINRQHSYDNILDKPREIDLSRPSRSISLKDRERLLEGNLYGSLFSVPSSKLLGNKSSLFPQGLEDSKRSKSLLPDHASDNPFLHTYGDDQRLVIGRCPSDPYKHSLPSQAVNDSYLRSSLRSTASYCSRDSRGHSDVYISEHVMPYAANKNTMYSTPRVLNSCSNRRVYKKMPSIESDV
Experiment: Antagonist activity at rat glutamate N1/2A receptor expressed in Xenopus oocytes at membrane potential -60 mV by two-electrode voltage-clamp electrophysiology assay
In simple prose, pIC50 is minus the logarithm base ten of a concentration in moles per litre.

| smiles data | parameter | data value |
| --- | --- | --- |
| NCCCNCCCCNCCC(=O)NCCCCCNC(=O)[C@H](CC(N)=O)NC(=O)Cc1c[nH]c2ccccc12 | pIC50 | 6.82 |

What does the record list as pIC50 for `N=C(N)NCCC[C@H](N)C(=O)NCCCNCCCNCCCCCNC(=O)[C@H](CC(N)=O)NC(=O)Cc1ccc(O)cc1O` ?
6.75

What does the record list as pIC50 for `NCCCNCCCCNCCC(=O)NCCCCCNC(=O)[C@H](CC(N)=O)NC(=O)Cc1ccc(O)cc1O` ?
5.77

* * *

Molecular target: Glutamate receptor 1 (Rattus norvegicus)
Sequence (P19490 whole entry): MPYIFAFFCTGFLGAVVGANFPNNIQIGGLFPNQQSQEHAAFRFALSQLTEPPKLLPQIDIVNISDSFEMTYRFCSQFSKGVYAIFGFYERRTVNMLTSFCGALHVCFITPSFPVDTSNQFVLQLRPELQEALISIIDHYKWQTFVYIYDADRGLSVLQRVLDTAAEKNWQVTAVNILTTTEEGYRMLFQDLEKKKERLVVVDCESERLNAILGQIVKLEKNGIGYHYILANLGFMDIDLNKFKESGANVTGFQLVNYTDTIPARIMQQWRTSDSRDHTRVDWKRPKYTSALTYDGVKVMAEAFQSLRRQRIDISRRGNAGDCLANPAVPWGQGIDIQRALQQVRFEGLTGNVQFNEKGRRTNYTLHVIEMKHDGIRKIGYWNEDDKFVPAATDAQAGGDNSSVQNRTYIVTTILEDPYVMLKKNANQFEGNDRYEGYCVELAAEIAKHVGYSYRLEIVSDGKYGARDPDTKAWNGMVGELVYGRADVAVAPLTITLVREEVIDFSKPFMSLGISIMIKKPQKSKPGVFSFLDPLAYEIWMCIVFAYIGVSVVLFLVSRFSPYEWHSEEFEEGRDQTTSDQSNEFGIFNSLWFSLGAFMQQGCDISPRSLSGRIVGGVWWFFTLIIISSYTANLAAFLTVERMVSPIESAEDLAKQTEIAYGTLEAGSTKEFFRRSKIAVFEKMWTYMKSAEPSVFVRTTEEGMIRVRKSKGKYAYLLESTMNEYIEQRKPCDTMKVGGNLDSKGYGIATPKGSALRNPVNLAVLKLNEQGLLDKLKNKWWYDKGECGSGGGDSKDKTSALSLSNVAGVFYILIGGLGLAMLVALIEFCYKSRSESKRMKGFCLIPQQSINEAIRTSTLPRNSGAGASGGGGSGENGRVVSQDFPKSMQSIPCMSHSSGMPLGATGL
Assay: Antagonist activity at rat GluA1 receptor expressed in Xenopus oocytes at membrane potential -60 mV by two-electrode voltage-clamp electrophysiology assay
parameter: IC50 (nM)
Response body: numeric value in nM, unit text excluded.

| smiles data | data value |
| --- | --- |
| NCCCNCCCCNCCC(=O)NCCCCCNC(=O)[C@H](CC(N)=O)NC(=O)Cc1c[nH]c2cccc(O)c12 | 51 |
| C[C@H](NC(=O)CNC(=O)[C@@H](N)CCCNC(=N)N)C(=O)NCCCCNCCC(=O)NCCCCCNC(=O)[C@H](CC(N)=O)NC(=O)Cc1ccc(O)cc1O | 1080 |
| NCCCNCCCCNCCC(=O)NCCCCCNC(=O)[C@H](CC(N)=O)NC(=O)Cc1c[nH]c2ccccc12 | 27 |
| NCCCNCCCCNCCC(=O)NCCCCCNC(=O)[C@H](CC(N)=O)NC(=O)Cc1ccc(O)cc1O | 65 |
| N=C(N)NCCC[C@H](N)C(=O)NCCCNCCCNCCCCCNC(=O)[C@H](CC(N)=O)NC(=O)Cc1ccc(O)cc1O | 135 |

Turning now to a further molecule:
What does the record list as IC50 for `N=C(N)NCCC[C@H](N)C(=O)NCCCCNCCC(=O)NCCCCCNC(=O)[C@H](CC(N)=O)NC(=O)Cc1ccc(O)cc1O` ?
137

* * *

Target: Glutamate receptor ionotropic, kainate 1 (Rattus norvegicus, UniProt P22756)
Sequence (P22756 whole entry): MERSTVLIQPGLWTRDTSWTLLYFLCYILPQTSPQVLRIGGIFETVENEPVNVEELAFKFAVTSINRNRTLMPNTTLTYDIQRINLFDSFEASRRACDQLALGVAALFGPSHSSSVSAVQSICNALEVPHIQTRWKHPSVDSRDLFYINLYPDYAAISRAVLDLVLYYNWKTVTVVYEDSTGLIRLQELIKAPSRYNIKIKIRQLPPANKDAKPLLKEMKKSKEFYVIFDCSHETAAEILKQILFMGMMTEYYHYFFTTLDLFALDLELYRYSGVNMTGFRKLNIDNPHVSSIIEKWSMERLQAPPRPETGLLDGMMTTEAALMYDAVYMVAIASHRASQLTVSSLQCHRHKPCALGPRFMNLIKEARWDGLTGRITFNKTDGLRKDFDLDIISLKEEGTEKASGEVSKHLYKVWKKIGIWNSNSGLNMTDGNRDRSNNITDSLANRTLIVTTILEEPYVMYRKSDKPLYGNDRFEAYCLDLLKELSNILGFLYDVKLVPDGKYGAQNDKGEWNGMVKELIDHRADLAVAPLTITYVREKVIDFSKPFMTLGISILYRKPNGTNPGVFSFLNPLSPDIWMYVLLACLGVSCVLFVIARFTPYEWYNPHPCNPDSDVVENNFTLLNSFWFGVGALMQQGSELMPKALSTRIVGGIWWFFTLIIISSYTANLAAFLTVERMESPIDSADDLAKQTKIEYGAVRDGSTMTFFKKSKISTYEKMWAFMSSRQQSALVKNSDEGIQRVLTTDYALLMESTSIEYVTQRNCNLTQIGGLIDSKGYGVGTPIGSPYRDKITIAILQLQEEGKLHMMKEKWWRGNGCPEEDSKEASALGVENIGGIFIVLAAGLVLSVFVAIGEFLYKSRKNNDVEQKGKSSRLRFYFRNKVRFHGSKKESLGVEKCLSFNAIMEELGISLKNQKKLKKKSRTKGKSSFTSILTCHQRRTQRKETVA
Assay: Antagonist activity at rat GluK1 receptor expressed in Xenopus oocytes at membrane potential -60 mV by two-electrode voltage-clamp electrophysiology assay
Format: functional, cell-based, Oocyte
parameter: pIC50
In simple prose, pIC50 is minus the logarithm base ten of a concentration in moles per litre.

Solved entries (count: 3):
| smiles data | tested target | data value |
| --- | --- | --- |
| NCCCNCCCCNCCC(=O)NCCCCCNC(=O)[C@H](CC(N)=O)NC(=O)Cc1c[nH]c2ccccc12 | Glutamate receptor ionotropic, kainate 1 (Rattus norvegicus, UniProt P22756) | 9.09 |
| N=C(N)NCCC[C@H](N)C(=O)NCCCCNCCC(=O)NCCCCCNC(=O)[C@H](CC(N)=O)NC(=O)Cc1ccc(O)cc1O | Glutamate receptor ionotropic, kainate 1 (Rattus norvegicus, UniProt P22756) | 6.79 |
| NCCCNCCCCNCCC(=O)NCCCCCNC(=O)[C@H](CC(N)=O)NC(=O)Cc1ccc(O)cc1O | Glutamate receptor ionotropic, kainate 1 (Rattus norvegicus, UniProt P22756) | 7.72 |

Under Glutamate receptor ionotropic, kainate 1 (Rattus norvegicus, UniProt P22756): pIC50 value of `C[C@H](NC(=O)CNC(=O)[C@@H](N)CCCNC(=N)N)C(=O)NCCCCNCCC(=O)NCCCCCNC(=O)[C@H](CC(N)=O)NC(=O)Cc1ccc(O)cc1O` ?
5.59

Under Glutamate receptor ionotropic, kainate 1 (Rattus norvegicus, UniProt P22756): pIC50 value of `NCCCNCCCCNCCC(=O)NCCCCCNC(=O)[C@H](CC(N)=O)NC(=O)Cc1c[nH]c2cccc(O)c12` ?
9.48

* * *

Molecular target: Glutamate receptor ionotropic, kainate 1 (Rattus norvegicus, UniProt P22756)
Assay: Antagonist activity at rat GluK1 receptor expressed in Xenopus oocytes by two-electrode voltage-clamp at membrane potential -60 to -80 mV electrophysiology assay
Format: functional, cell-based, Oocyte
parameter: IC50 (pM)
Response body: numeric value in pM, unit text excluded.

| smiles data | unit info | IC50 |
| --- | --- | --- |
| NCCCNCCCCNCCC(=O)NCCCCCNC(=O)[C@H](CC(N)=O)NC(=O)Cc1c[nH]c2ccccc12 | pM | 280 |

Turning now to a further molecule:
What does the record list as IC50 for `NCCCNCCCCNCCC(=O)NCCCCCNC(=O)[C@H](CC(N)=O)NC(=O)Cc1c[nH]c2cccc(O)c12` ?
190
